Known % Inhibition (FS) 1 μM of a selection of compounds
# targetOrTestSystem: β-secretase(BACE) (Homo sapiens)
# Construct: purchased Panvera
# assayName: BACE FS1% Inhibition Assay
# Type: biochemical
# measurementContext: 1 μM test compound; FS1 substrate

{"compound": "Cc1ccc(Sc2ccc3c(c2)CN(Cc2cccc(C(=O)N(C)C4CCCCC4)c2)C(N)=N3)cc1C", "% Inhibition (FS) 1 μM": "34%"}
{"compound": "CN(C(=O)c1cccc(CN2Cc3cc(Nc4ccc(N5CCOCC5)cc4)ccc3N=C2N)c1)C1CCCCC1", "% Inhibition (FS) 1 μM": "<30%"}
{"compound": "CC(C)(C)OC(=O)N1CCCCC(N2Cc3cc(Oc4ccccc4)ccc3N=C2N)C1 (stereo not drawn)", "% Inhibition (FS) 1 μM": "<30%"}
{"compound": "CN(C(=O)c1ncoc1CN1Cc2cc(Oc3ccccc3)ccc2N=C1N)C1CCCCC1", "% Inhibition (FS) 1 μM": "<30%"}
{"compound": "COc1cccc(OC)c1Oc1ccc2c(c1)CN(Cc1cccc(C(=O)N(C)C3CCCCC3)c1)C(N)=N2", "% Inhibition (FS) 1 μM": "<30%"}
{"compound": "COc1ccccc1-c1ccc2c(c1)CN(CCNC(=O)C1CCN(C(C)=O)CC1)C(N)=N2", "% Inhibition (FS) 1 μM": "<30%"}
{"compound": "Cc1cccc(Nc2ccc3c(c2)CN(Cc2cccc(C(=O)N(C)C4CCCCC4)c2)C(N)=N3)c1", "% Inhibition (FS) 1 μM": "<30%"}
{"compound": "NC1=Nc2ccc(Oc3ccccc3)cc2CN1CCNC(=O)c1ccc(-c2ccccc2)cc1", "% Inhibition (FS) 1 μM": "<30%"}
{"compound": "NC1=Nc2ccc(Oc3ccccc3)cc2CN1C(CNC(=O)C12CC3CC(CC(C3)C1)C2)C1CCCCC1 (stereo not drawn)", "% Inhibition (FS) 1 μM": "103%"}
{"compound": "CCCC(=O)NCCN1Cc2cc(-c3ccccc3F)ccc2N=C1N", "% Inhibition (FS) 1 μM": "57%"}
{"compound": "CN(C(=O)c1cccc(CN2Cc3cc(Nc4ccc5c(c4)OCO5)ccc3N=C2N)c1)C1CCCCC1", "% Inhibition (FS) 1 μM": "29%"}
{"compound": "COc1cccc(C(=O)NCCN2Cc3cc(Oc4ccccc4)ccc3N=C2N)c1", "% Inhibition (FS) 1 μM": "<30%"}
{"compound": "NC1=Nc2ccc(-c3ccccc3Cl)cc2CN1CCNC(=O)C1CCC1", "% Inhibition (FS) 1 μM": "65%"}
{"compound": "NC1=Nc2ccc(Oc3ccccc3)cc2CN1CC1CCN(C(=O)C23CC4CC(CC(C4)C2)C3)CC1", "% Inhibition (FS) 1 μM": "<30%"}
{"compound": "CCCC=Cc1ccc2c(c1)CN(CCNC(=O)CC1CCCC1)C(N)=N2", "% Inhibition (FS) 1 μM": "<30%"}
{"compound": "CN(C(=O)c1ncoc1C(Cc1ccccc1)N1Cc2cc(Oc3ccccc3)ccc2N=C1N)C1CCCCC1 (stereo not drawn)", "% Inhibition (FS) 1 μM": "<30%"}
{"compound": "CCCCCC1CCC(C(=O)NCCN2Cc3cc(Oc4ccccc4)ccc3N=C2N)CC1 (stereo not drawn)", "% Inhibition (FS) 1 μM": "<30%"}
{"compound": "CC(=O)Nc1ccccc1-c1ccc2c(c1)CN(CCNC(=O)C1CCCCC1)C(N)=N2", "% Inhibition (FS) 1 μM": "<30%"}

----------
Known inhibition at 1 µM of a selection of compounds
# targetOrTestSystem: β-secretase(BACE) (Homo sapiens, UniProt P56817)
# Construct: purchased Panvera
# Sequence (P56817 46-501): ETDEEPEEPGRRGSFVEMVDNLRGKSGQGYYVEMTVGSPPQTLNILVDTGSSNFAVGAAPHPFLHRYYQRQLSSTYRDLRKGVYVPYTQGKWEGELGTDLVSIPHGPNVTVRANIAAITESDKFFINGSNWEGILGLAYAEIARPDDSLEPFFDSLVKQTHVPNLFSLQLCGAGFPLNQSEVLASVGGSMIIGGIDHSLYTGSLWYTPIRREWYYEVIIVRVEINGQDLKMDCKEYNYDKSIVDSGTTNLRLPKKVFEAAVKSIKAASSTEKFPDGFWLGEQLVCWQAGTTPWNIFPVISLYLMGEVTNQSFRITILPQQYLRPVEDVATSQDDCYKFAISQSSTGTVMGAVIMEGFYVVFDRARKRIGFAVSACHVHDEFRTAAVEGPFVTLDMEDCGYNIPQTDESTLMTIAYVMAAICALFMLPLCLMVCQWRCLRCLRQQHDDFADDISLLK
# assayName: BACE FS1% Inhibition Assay
# Type: biochemical
# measurementContext: 1 μM test compound; FS1 substrate; read-out: % Inhibition (FS) 1 μM

{"compound": "CN(C(=O)CCN1Cc2cc(Oc3ccccc3)ccc2N=C1N)C1C2CC3CC(C2)CC1C3 (stereo not drawn)", "inhibition at 1 µM [%]": 70}
{"compound": "CCC(c1cccc(C(=O)N(C2CCCCC2)C2CCCCC2)c1)N1Cc2cc(-c3ccccc3OC)ccc2N=C1N (stereo not drawn)", "inhibition at 1 µM [%]": 89}
{"compound": "CONC1=Nc2ccc(-c3ccccc3OC)cc2CN1Cc1cccc(C(=O)N(C)C2CCCCC2)c1", "inhibition at 1 µM [%]": 72}

----------
Known % Inhibition (FS) of a selection of compounds
# targetOrTestSystem: β-secretase(BACE) (Homo sapiens, UniProt P56817)
# Construct: purchased Panvera
# assayName: BACE FS1% Inhibition Assay
# Type: biochemical
# measurementContext: 0.3 μM test compound; FS1 substrate

{"compound": "CNC(=O)C1CCC(N(C)C(=O)CCC(C2CCCCC2)N2Cc3cc(Oc4ccccc4)ccc3N=C2N)CC1 (stereo not drawn)", "targetOrTestSystem": "β-secretase(BACE) (Homo sapiens, UniProt P56817)", "% Inhibition (FS)": "<30%"}
{"compound": "COc1cccc(F)c1-c1ccc2c(c1)CN(CCNC(=O)C1CCOCC1)C(N)=N2", "targetOrTestSystem": "β-secretase(BACE) (Homo sapiens, UniProt P56817)", "% Inhibition (FS)": "31%"}
{"compound": "Cc1ccccc1-c1ccc2c(c1)CN(CCNC(=O)C1CCC(C(F)(F)F)CC1)C(N)=N2 (stereo not drawn)", "targetOrTestSystem": "β-secretase(BACE) (Homo sapiens, UniProt P56817)", "% Inhibition (FS)": "<30%"}
{"compound": "NC1=Nc2ccc(-c3ccc4ccccc4c3)cc2CN1CCNC(=O)CCC(F)(F)F", "targetOrTestSystem": "β-secretase(BACE) (Homo sapiens, UniProt P56817)", "% Inhibition (FS)": "<30%"}
{"compound": "NC1=Nc2ccc(-c3ccccc3F)cc2CN1CCNC(=O)C1CCC(C(F)(F)F)CC1 (stereo not drawn)", "targetOrTestSystem": "β-secretase(BACE) (Homo sapiens, UniProt P56817)", "% Inhibition (FS)": "<30%"}
{"compound": "NC1=Nc2ccc(-c3ccccc3Cl)cc2CN1CCNC(=O)C1CCOCC1", "targetOrTestSystem": "β-secretase(BACE) (Homo sapiens, UniProt P56817)", "% Inhibition (FS)": "33%"}
{"compound": "NC1=Nc2ccc(-c3ccc4ccccc4c3)cc2CN1CCNC(=O)C12CC3CC(CC(C3)C1)C2", "targetOrTestSystem": "β-secretase(BACE) (Homo sapiens, UniProt P56817)", "% Inhibition (FS)": "35%"}
{"compound": "CN(CC(=O)O)C(=O)CCC(C1CCCCC1)N1Cc2cc(Oc3ccccc3)ccc2N=C1N (stereo not drawn)", "targetOrTestSystem": "β-secretase(BACE) (Homo sapiens, UniProt P56817)", "% Inhibition (FS)": "<30%"}
{"compound": "NC1=Nc2ccc(-c3ccccc3Cl)cc2CN1CCNC(=O)CCC(F)(F)F", "targetOrTestSystem": "β-secretase(BACE) (Homo sapiens, UniProt P56817)", "% Inhibition (FS)": "39%"}
{"compound": "CC(C)CCC(=O)NCCN1Cc2cc(-c3ccc4ccccc4c3)ccc2N=C1N", "targetOrTestSystem": "β-secretase(BACE) (Homo sapiens, UniProt P56817)", "% Inhibition (FS)": "<30%"}
{"compound": "COC(=O)C1CCCC(N(C)C(=O)CCC(C2CCCCC2)N2Cc3cc(Oc4ccccc4)ccc3N=C2N)C1 (mixture of isomers)", "targetOrTestSystem": "β-secretase(BACE) (Homo sapiens, UniProt P56817)", "% Inhibition (FS)": "38%"}
{"compound": "NC1=Nc2ccc(C3=CCCCC3)cc2CN1CCNC(=O)C1CCC(C(F)(F)F)CC1 (stereo not drawn)", "targetOrTestSystem": "β-secretase(BACE) (Homo sapiens, UniProt P56817)", "% Inhibition (FS)": "<30%"}
{"compound": "CN(C(=O)CCC(C1CCCCC1)N1Cc2cc(Oc3ccccc3)ccc2N=C1N)C1CCC(C(=O)OCc2ccccc2)CC1 (stereo not drawn)", "targetOrTestSystem": "β-secretase(BACE) (Homo sapiens, UniProt P56817)", "% Inhibition (FS)": "<30%"}
{"compound": "NC1=Nc2ccc(-c3cnc4ccccc4c3)cc2CN1CCNC(=O)C12CC3CC(CC(C3)C1)C2", "targetOrTestSystem": "β-secretase(BACE) (Homo sapiens, UniProt P56817)", "% Inhibition (FS)": "<30%"}
{"compound": "NC1=Nc2ccc(-c3ccc4ccccc4c3)cc2CN1CCNC(=O)C1CCC1", "targetOrTestSystem": "β-secretase(BACE) (Homo sapiens, UniProt P56817)", "% Inhibition (FS)": "<30%"}

----------
# targetOrTestSystem: β-secretase(BACE) (Homo sapiens)
# Construct: purchased Panvera
# assayName: BACE FS1% Inhibition Assay
# Format: biochemical
# measurementContext: 3 μM test compound; FS1 substrate; read-out: % Inhibition (FS) 3 μM
Known inhibition at 3 µM of a selection of compounds

{"compound": "CN(CCN1Cc2cc(Oc3ccccc3)ccc2N=C1N)C(=O)OC(C)(C)C", "endpointUnit": "%", "inhibition at 3 µM": 111}
{"compound": "COc1cccc(-c2ccc3c(c2)CN(Cc2cccc(C(=O)N(C)C4CCCCC4)c2)C(N)=N3)c1", "endpointUnit": "%", "inhibition at 3 µM": 101}
{"compound": "CN(C(=O)c1cccc(CN2Cc3cc(-c4ccccc4OC(F)(F)F)ccc3N=C2N)c1)C1CCCCC1", "endpointUnit": "%", "inhibition at 3 µM": 87}
{"compound": "Cc1cccc(-c2ccc3c(c2)CN(CCNC(=O)C2CCCCC2)C(N)=N3)c1", "endpointUnit": "%", "inhibition at 3 µM": 105}
{"compound": "NC1=Nc2ccc(Oc3ccccc3)cc2CN1CCNC(=O)CCC1CCCC1", "endpointUnit": "%", "inhibition at 3 µM": 79}
{"compound": "COc1ccccc1-c1ccc2c(c1)CN(CCNC(=O)C1CCCCC1)C(N)=N2", "endpointUnit": "%", "inhibition at 3 µM": 93}
{"compound": "CN(C(=O)CCN1Cc2cc(Oc3ccccc3)ccc2N=C1N)C1C2CC3CC(C2)CC1C3 (stereo not shown)", "endpointUnit": "%", "inhibition at 3 µM": 104}
{"compound": "CCCCC(CC)C(=O)NCC(C1CCCCC1)N1Cc2cc(Oc3ccccc3)ccc2N=C1N (stereo not shown)", "endpointUnit": "%", "inhibition at 3 µM": 109}
{"compound": "CN(C(=O)c1cccc(CN2Cc3cc(-c4ccccc4F)ccc3N=C2N)c1)C1CCCCC1", "endpointUnit": "%", "inhibition at 3 µM": 118}
{"compound": "CCCC(CCC(=O)N(CC)C1CCCCC1)N1Cc2cc(Oc3ccccc3)ccc2N=C1N (stereo not shown)", "endpointUnit": "%", "inhibition at 3 µM": 79}
